Hello, the source for this data is patent US8735085B2, in case you need it.

experiment: Sequential multi-step reaction (SMSR) kinetic modeling of FPA and its fragments in pooled heparin plasma; format: in vitro ADME, human; details: heparin plasma pooled from three healthy individuals, four replicates, first-order SMSR
observation type: log10(half-lives) (log10 of the value in h)
Recorded half-lives (log10, h)

EGDFLAEGGGVR (listed as Homo sapiens) [FPA-4]
1.18
GEGDFLAEGGGVR (listed as Homo sapiens) [FPA-3]
-0.42
ADSGEGDFLAEGGGVR (listed as Homo sapiens) [FPA]
-0.54
DSGEGDFLAEGGGVR (listed as Homo sapiens) [FPA-1]
0.32

Consider the record given below.
So what's the measured log10(half-lives) for this one? SGEGDFLAEGGGVR (listed as Homo sapiens) [FPA-2]
-0.51

---

experiment: Sequential multi-step reaction (SMSR) kinetic modeling of FPA and its fragments in pooled heparin plasma; format: in vitro ADME, human; settings: heparin plasma, SMSR model
Listing of entries alongside the reported T1/2 (h) in Heparin.

ADSGEGDFLAEGGGVR (listed as Homo sapiens) [FPA]
0.29 h
EGDFLAEGGGVR (listed as Homo sapiens) [FPA-4]
15.2 h
DSGEGDFLAEGGGVR (listed as Homo sapiens) [FPA-1]
2.1 h
GEGDFLAEGGGVR (listed as Homo sapiens) [FPA-3]
0.38 h

Consider the record given below.
So what's the measured T1/2 (h) in Heparin for this one? SGEGDFLAEGGGVR (listed as Homo sapiens) [FPA-2]
0.31 h

---

experiment: Sequential multi-step reaction (SMSR) kinetic modeling of FPA and its fragments in pooled heparin plasma; assay type: in vitro ADME, human; conditions: AQUA FPA spiked in heparinized plasma
observation type: incubation time at which the truncated daughter peptide was detected

SGEGDFLAEGGGVR (listed as Homo sapiens) [FPA-2]
Time 0
DSGEGDFLAEGGGVR (listed as Homo sapiens) [FPA-1]
Time 0
GDFLAEGGGVR (listed as Homo sapiens) [FPA-5]
at two hours
DFLAEGGGVR (listed as Homo sapiens) [FPA-6]
at two hours
